meta.source: paper PMC12466757

experiment: Cytotoxicity, resazurin cell viability assay, HaCaT; details: human, HaCaT skin cells
Measurement name: CC50 at 48 h (µM)

[
  {
    "Compound": "OC(Cn1cncn1)(Cn1cncn1)c1ccc(F)cc1F [Fluconazole, reference compound]",
    "Measurement name": "CC50 at 48 h",
    "Data value": 841
  }
]

---

Parameter MIC: see the listing below.
test system: Microdochium bolleyi (DSM 62073); assay: MIC assay, filamentous fungus M. bolleyi; assay type: cell-based; conditions: DSM62073, DSM 62073, plant pathogen, 25 °C, 48–72 h
Measurement name: MIC (µM)

[
  {
    "Molecule": "CCCCOc1ccc(/C=C2\\CN(CC)C/C(=C\\c3ccc(OCCCC)c(OCCCC)c3OCCCC)C2=O)c(OCCCC)c1OCCCC",
    "Quantity unit": "µM",
    "Relation operator": ">",
    "Data value": 250
  },
  {
    "Molecule": "CCCCOc1ccc(/C=C2\\CN(Cc3ccccc3)C/C(=C\\c3ccc(OCCCC)cc3OCCCC)C2=O)c(OCCCC)c1",
    "Quantity unit": "µM",
    "Relation operator": "=",
    "Data value": 31.2
  },
  {
    "Molecule": "OC(Cn1cncn1)(Cn1cncn1)c1ccc(F)cc1F [Fluconazole, reference compound]",
    "Quantity unit": "µM",
    "Relation operator": ">",
    "Data value": 1000
  },
  {
    "Molecule": "CCCCOc1ccc(/C=C2\\CN(CC)C/C(=C\\c3ccc(OCCCC)cc3OCCCC)C2=O)c(OCCCC)c1",
    "Quantity unit": "µM",
    "Relation operator": "=",
    "Data value": 62.5
  },
  {
    "Molecule": "CCCCOc1ccc(/C=C2\\CN(Cc3ccccc3)C/C(=C\\c3ccc(OCCCC)c(OCCCC)c3)C2=O)cc1OCCCC",
    "Quantity unit": "µM",
    "Relation operator": "=",
    "Data value": 62.5
  }
]

---

tested on: Fusarium graminearum (DSM 1095); assay: microbe, parasite or virus in culture; format: cell-based; conditions: DSM1095, read-out: MIC F. graminearum
Measurement name: MIC

[
  {
    "Molecule": "OC(Cn1cncn1)(Cn1cncn1)c1ccc(F)cc1F [Fluconazole, reference compound]",
    "Data value": "> 1000 µM"
  },
  {
    "Molecule": "CCCCOc1ccc(/C=C2\\CN(Cc3ccccc3)C/C(=C\\c3ccc(OCCCC)cc3OCCCC)C2=O)c(OCCCC)c1",
    "Data value": "125 µM"
  },
  {
    "Molecule": "CCCCOc1ccc(/C=C2\\CN(Cc3ccccc3)C/C(=C\\c3ccc(OCCCC)c(OCCCC)c3)C2=O)cc1OCCCC",
    "Data value": "> 250 µM"
  },
  {
    "Molecule": "CCCCOc1ccc(/C=C2\\CN(CC)C/C(=C\\c3ccc(OCCCC)c(OCCCC)c3OCCCC)C2=O)c(OCCCC)c1OCCCC",
    "Data value": "> 250 µM"
  },
  {
    "Molecule": "CCCCOc1ccc(/C=C2\\CN(CC)C/C(=C\\c3ccc(OCCCC)cc3OCCCC)C2=O)c(OCCCC)c1",
    "Data value": "> 250 µM"
  }
]

---

assay: in vitro; settings: human

[
  {
    "Smiles notation": "CCCCOc1ccc(/C=C2\\CN(C3CC3)C/C(=C\\c3ccc(OCCCC)cc3OCCCC)C2=O)c(OCCCC)c1",
    "CC50 at 48 h": "> 1 mM"
  }
]

---

test: in vitro; details: human

[
  {
    "Compound": "CCCCOc1ccc(/C=C2\\CN(C3CC3)C/C(=C\\c3ccc(OCCCC)cc3OCCCC)C2=O)c(OCCCC)c1 [4h]",
    "CC50 at 48 h": "> 1000 µM"
  }
]

---

A set of molecules tested on Colletotrichum graminicola (DSM 63127), with measured MIC:

[
  {
    "Molecule": "CCCCOc1ccc(/C=C2\\CN(Cc3ccccc3)C/C(=C\\c3ccc(OCCCC)cc3OCCCC)C2=O)c(OCCCC)c1",
    "Target": "Colletotrichum graminicola (DSM 63127)",
    "Relation operator": "=",
    "MIC, µM": 250
  },
  {
    "Molecule": "OC(Cn1cncn1)(Cn1cncn1)c1ccc(F)cc1F [Fluconazole, reference compound]",
    "Target": "Colletotrichum graminicola (DSM 63127)",
    "Relation operator": "=",
    "MIC, µM": 50
  },
  {
    "Molecule": "CCCCOc1ccc(/C=C2\\CN(Cc3ccccc3)C/C(=C\\c3ccc(OCCCC)c(OCCCC)c3)C2=O)cc1OCCCC",
    "Target": "Colletotrichum graminicola (DSM 63127)",
    "Relation operator": "=",
    "MIC, µM": 125
  },
  {
    "Molecule": "CCCCOc1ccc(/C=C2\\CN(CC)C/C(=C\\c3ccc(OCCCC)cc3OCCCC)C2=O)c(OCCCC)c1",
    "Target": "Colletotrichum graminicola (DSM 63127)",
    "Relation operator": ">",
    "MIC, µM": 250
  },
  {
    "Molecule": "CCCCOc1ccc(/C=C2\\CN(CC)C/C(=C\\c3ccc(OCCCC)c(OCCCC)c3OCCCC)C2=O)c(OCCCC)c1OCCCC",
    "Target": "Colletotrichum graminicola (DSM 63127)",
    "Relation operator": ">",
    "MIC, µM": 250
  }
]

---

test: Cytotoxicity, resazurin cell viability assay, HepG2; settings: human, HepG2 liver cells

[
  {
    "Compound": "OC(Cn1cncn1)(Cn1cncn1)c1ccc(F)cc1F [Fluconazole, reference compound]",
    "CC50 at 48 h": "> 1000 µM"
  }
]

---

A set of compounds tested on Penicillium verrucosum (DSM 12639), with measured MIC:
Measurement name: MIC (µM)

[
  {
    "Compound": "CCCCOc1ccc(/C=C2\\CN(Cc3ccccc3)C/C(=C\\c3ccc(OCCCC)cc3OCCCC)C2=O)c(OCCCC)c1 [3h]",
    "Target": "Penicillium verrucosum (DSM 12639)",
    "Quantity unit": "µM",
    "Relation operator": "=",
    "Data value": 62.5
  },
  {
    "Compound": "CCCCOc1ccc(/C=C2\\CN(CC)C/C(=C\\c3ccc(OCCCC)c(OCCCC)c3OCCCC)C2=O)c(OCCCC)c1OCCCC [2m]",
    "Target": "Penicillium verrucosum (DSM 12639)",
    "Quantity unit": "µM",
    "Relation operator": ">",
    "Data value": 250
  },
  {
    "Compound": "CCCCOc1ccc(/C=C2\\CN(CC)C/C(=C\\c3ccc(OCCCC)cc3OCCCC)C2=O)c(OCCCC)c1 [2h]",
    "Target": "Penicillium verrucosum (DSM 12639)",
    "Quantity unit": "µM",
    "Relation operator": "=",
    "Data value": 125
  },
  {
    "Compound": "OC(Cn1cncn1)(Cn1cncn1)c1ccc(F)cc1F [Fluconazole, reference compound]",
    "Target": "Penicillium verrucosum (DSM 12639)",
    "Quantity unit": "µM",
    "Relation operator": ">",
    "Data value": 1000
  },
  {
    "Compound": "CCCCOc1ccc(/C=C2\\CN(Cc3ccccc3)C/C(=C\\c3ccc(OCCCC)c(OCCCC)c3)C2=O)cc1OCCCC [3iso-h]",
    "Target": "Penicillium verrucosum (DSM 12639)",
    "Quantity unit": "µM",
    "Relation operator": "=",
    "Data value": 125
  }
]

---

assay: Cytotoxicity, resazurin cell viability assay, A498; settings: human, A498 kidney cells
Measurement name: CC50 at 48 h (µM)

[
  {
    "Compound": "OC(Cn1cncn1)(Cn1cncn1)c1ccc(F)cc1F [Fluconazole, reference compound]",
    "Measurement name": "CC50 at 48 h",
    "Quantity unit": "µM",
    "Data value": 994
  }
]

---

experiment: Cytotoxicity, resazurin cell viability assay, Caco-2; conditions: human
Parameter CC50 at 48 h: see the listing below.

[
  {
    "Compound": "CCN1C/C(=C\\c2ccc([N+](=O)[O-])cc2)C(=O)/C(=C/c2ccc([N+](=O)[O-])cc2)C1 [1d]",
    "CC50 at 48 h (µM)": 95.4
  },
  {
    "Compound": "OC(Cn1cncn1)(Cn1cncn1)c1ccc(F)cc1F [Fluconazole, reference compound]",
    "CC50 at 48 h (µM)": 977
  }
]

---

test system: Candida glabrata (DSM 11226); test: MIC assay, pathogenic yeast C. glabrata; assay type: cell-based; conditions: Nakaseomyces glabratus, DSM11226, 35 °C, 24–48 h
# Y = MIC below 30 µM (exclusive); N = MIC at/above 30 µM

[
  {
    "Molecule": "CCCCOc1ccc(/C=C2\\CN(Cc3ccccc3)C/C(=C\\c3ccc(OCCCC)cc3OCCCC)C2=O)c(OCCCC)c1",
    "Class assignment": "Y"
  },
  {
    "Molecule": "OC(Cn1cncn1)(Cn1cncn1)c1ccc(F)cc1F [Fluconazole, reference compound]",
    "Class assignment": "N"
  },
  {
    "Molecule": "CCCCOc1ccc(/C=C2\\CN(Cc3ccccc3)C/C(=C\\c3ccc(OCCCC)c(OCCCC)c3)C2=O)cc1OCCCC",
    "Class assignment": "N"
  },
  {
    "Molecule": "CCCCOc1ccc(/C=C2\\CN(CC)C/C(=C\\c3ccc(OCCCC)c(OCCCC)c3OCCCC)C2=O)c(OCCCC)c1OCCCC",
    "Class assignment": "Y"
  },
  {
    "Molecule": "CCCCOc1ccc(/C=C2\\CN(CC)C/C(=C\\c3ccc(OCCCC)cc3OCCCC)C2=O)c(OCCCC)c1",
    "Class assignment": "N"
  }
]
